Target: chimeric Taq 10-1 (Thermus aquaticus / environmental DNA chimera) (UniProt P19821)
Sequence (P19821 whole entry, change not shown): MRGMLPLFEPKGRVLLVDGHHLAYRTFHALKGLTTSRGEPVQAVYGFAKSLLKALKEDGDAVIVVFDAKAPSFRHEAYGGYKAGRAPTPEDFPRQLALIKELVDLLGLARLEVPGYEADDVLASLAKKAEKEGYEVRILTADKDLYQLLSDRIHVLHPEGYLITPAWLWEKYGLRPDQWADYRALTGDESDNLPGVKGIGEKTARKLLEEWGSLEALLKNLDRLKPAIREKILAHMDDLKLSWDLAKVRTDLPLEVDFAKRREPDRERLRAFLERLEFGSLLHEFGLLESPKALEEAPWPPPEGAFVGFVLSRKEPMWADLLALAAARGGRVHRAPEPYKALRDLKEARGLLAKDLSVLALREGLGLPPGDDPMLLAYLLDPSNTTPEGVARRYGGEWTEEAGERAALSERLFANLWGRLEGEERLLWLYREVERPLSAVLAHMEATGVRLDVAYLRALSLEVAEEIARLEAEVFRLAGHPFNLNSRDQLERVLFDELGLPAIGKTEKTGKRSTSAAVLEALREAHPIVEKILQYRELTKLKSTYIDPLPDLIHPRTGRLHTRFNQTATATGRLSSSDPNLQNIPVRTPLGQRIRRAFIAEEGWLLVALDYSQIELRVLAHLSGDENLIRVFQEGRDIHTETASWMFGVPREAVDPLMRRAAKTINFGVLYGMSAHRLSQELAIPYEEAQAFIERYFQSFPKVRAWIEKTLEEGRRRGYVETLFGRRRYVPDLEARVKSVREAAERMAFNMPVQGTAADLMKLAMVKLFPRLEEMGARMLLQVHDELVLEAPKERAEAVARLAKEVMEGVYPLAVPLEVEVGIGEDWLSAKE
Experiment: EMSA
Conditions: EMSA: 3 nM DNA, 20 mM Tris-HCl pH 8.8, 10 mM NaCl, 5 mM MgCl2, 14 mM 2-mercaptoethanol, 0.1 mg/ml BSA, 5% glycerol, 40 C, 5 min; 1% agarose gel
readout-type: Kd (nM)
Express the result in nM but write the number alone.

Q: Record request: Kd value, item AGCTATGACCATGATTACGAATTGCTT / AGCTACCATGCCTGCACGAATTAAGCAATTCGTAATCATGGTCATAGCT [primed DNA (27mer/49mer)]
Result: 4

Sourced from paper PMC4153296
